- Assay system: T1, Recombinant Human Her3 (Her3/ErbB3 extracellular domain) (human, UniProt P21860 20-643)
- T1 construct: Analyte of the BIAcore assay; also called Her3 ECD; human Her3/ErbB3 extracellular domain
- T1 sequence (P21860 20-643 limits assumed): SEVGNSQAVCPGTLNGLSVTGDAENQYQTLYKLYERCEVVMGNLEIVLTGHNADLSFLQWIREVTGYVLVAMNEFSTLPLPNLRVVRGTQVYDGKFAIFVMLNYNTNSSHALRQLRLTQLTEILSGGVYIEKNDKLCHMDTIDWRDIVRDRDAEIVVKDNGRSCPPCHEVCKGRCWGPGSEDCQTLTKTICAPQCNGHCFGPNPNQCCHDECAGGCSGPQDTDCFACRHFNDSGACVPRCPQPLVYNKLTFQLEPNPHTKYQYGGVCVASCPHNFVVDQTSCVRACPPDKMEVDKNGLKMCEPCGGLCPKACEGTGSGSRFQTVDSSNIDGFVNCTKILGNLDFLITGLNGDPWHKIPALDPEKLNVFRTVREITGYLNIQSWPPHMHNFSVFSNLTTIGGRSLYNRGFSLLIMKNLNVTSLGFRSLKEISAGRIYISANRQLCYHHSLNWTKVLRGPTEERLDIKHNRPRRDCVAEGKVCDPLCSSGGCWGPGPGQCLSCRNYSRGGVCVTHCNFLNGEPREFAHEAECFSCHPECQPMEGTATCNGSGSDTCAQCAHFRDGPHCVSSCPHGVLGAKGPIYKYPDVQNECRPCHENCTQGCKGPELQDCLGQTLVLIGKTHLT
- Method notes: SPR (BIAcore), Mab captured by anti-IgG Fc on CM5 chip, recombinant human Her3 as analyte, 25 °C
Measured property: pKd
// returns pKd (minus log10 of molar concentration), number only

[
  {
    "Binder": "588E10 (antibody, V domains shown, Purified mouse IgG from a hybridoma; also called 588E10-HC; 588E10-LC) VH: EVQLQQSGPKLVGPGESVKISCKGSGYTFTDYGMHWVKQSHAKRLEWIGVITIYDGHTNYNQNFKGKAALTVDKSSNTAYLELARMTSEDSAIYYCARGDYDLFWYLDVWGAGTTLTVSS VL: DVVMTQTPLSLTVSLGDQASISCRSSQNIKHSDGNTYLEWYLQKPGQSPKLLIYKVSNRFSGVPDRFSGSGSGTDFTLKISRVEAEDLGVYFCFQGSHVPLTFGAGTKLELKR",
    "pKd": 8.48
  }
]

Continue with the binder presented below.
Query block: I would be grateful if you could share the reported pKd for PO-1G2-B6 (antibody, V domains shown, Purified mouse IgG from a hybridoma; also called PO-1G2-B6-HC; PO-1G2-B6-LC) VH: EVQLQQSGPELVKPGASVKISCKASGYSFTGYHIHWMKQSHVESLEWIGRINPYSGVTDYNQNFKDKANLTVDQSSSTAYMELHSLTSEDSAFYYCARTDYYGPWFAYWGQGTLVTVSA VL: DIQMTQSPLSLPVSLGDQASISCRSSPSLVHSNGNTYLHWYLQKPGQSPKLLIYTVSNRFSGVPDRFSGSGSGTDFTLKINRVEAEDLGVYFCSQTTHVPWTFGGGTKLEIKR .
Result block: 8.26

Every entry's value here was drawn from patent US20120195831A1.
